Molecular target: CRTH2 (Homo sapiens)
Sequence (Q9Y5Y4 1-395): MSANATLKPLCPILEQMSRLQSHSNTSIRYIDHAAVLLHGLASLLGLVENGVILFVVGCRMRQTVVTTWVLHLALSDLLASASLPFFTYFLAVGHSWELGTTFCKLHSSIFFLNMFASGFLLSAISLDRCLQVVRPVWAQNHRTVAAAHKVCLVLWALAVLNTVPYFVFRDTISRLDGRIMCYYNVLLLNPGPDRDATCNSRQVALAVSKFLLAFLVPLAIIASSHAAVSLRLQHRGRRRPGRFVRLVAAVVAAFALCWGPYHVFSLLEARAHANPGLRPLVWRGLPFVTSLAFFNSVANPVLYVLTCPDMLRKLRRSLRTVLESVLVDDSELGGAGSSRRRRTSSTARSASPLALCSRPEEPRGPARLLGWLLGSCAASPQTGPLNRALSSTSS
Assay: Radioligand binding Scintillation Proximity Assay ([3H]PGD2, hCRTH2-CHO cell membranes)
Set-up: host or cells: CHO cells
Conditions: 1.5 nM [3H]PGD2, hCRTH2-CHO cell membranes, SPA
PROPERTY: IC50 (µM)
Give the number; µM is assumed, so skip it.

Some solved cases for reference:
COc1ccccc1C#Cc1cc(Cl)ccc1OCC(=O)O [Example 6] ... 0.229
COc1ccc(-c2ccc(C#Cc3cc(Cl)ccc3OCC(=O)O)cc2S(C)(=O)=O)cc1 [Example 141] ... 0.008
CS(=O)(=O)c1ccc(F)c(C#Cc2cc(Cl)ccc2OCC(=O)O)c1 [Example 48] ... 0.009
Cc1ccc(S(C)(=O)=O)cc1C#Cc1cc(Cl)ccc1OCC(=O)O [Example 33] ... 0.009
O=C(O)COc1ccc(Cl)cc1C#Cc1cncc(S(=O)(=O)N2CCOCC2)c1 [Example 79] ... 0.052
O=C(O)COc1ccc(Cl)cc1C#Cc1ccncc1 [Example 12] ... 0.811
CN(C)S(=O)(=O)c1ccc(F)c(C#Cc2cc(Cl)ccc2OCC(=O)O)c1 [Example 107] ... 0.004
CCCS(=O)(=O)c1cccc(C#Cc2cc(C(F)(F)F)ccc2OCC(=O)O)c1 [Example 55] ... 0.013

Exercise: Provide IC50 value for the following molecule: CCCCN(C)C(=O)c1ccc(C#Cc2cc(Cl)ccc2OCC(=O)O)cc1S(=O)(=O)C(C)C [Example 163]
Key: 0.032

Exercise: Provide IC50 value for the following molecule: CN(c1cncc(C#Cc2cc(Cl)ccc2OCC(=O)O)c1)S(C)(=O)=O [Example 47]
Key: 0.34

Exercise: Provide IC50 value for the following molecule: CS(=O)(=O)c1ccc(Cl)c(C#Cc2cc(Cl)ccc2OCC(=O)O)c1 [Example 59]
Key: 0.006

Exercise: Provide IC50 value for the following molecule: Cc1ccc(S(=O)(=O)N2CCCCC2C)cc1C#Cc1cc(Cl)ccc1OCC(=O)O (stereo not drawn) [Example 108]
Key: 0.002

Exercise: Provide IC50 value for the following molecule: CS(=O)(=O)c1cc(C#Cc2cc(Cl)ccc2OCC(=O)O)ccc1-c1cccc(Cl)c1 [Example 145]
Key: 0.019

---

Assay: In vivo pharmacokinetic evaluation in mouse
Parameters: species or system C57BL/6 female mice
Conditions: mice
Quick rule: Oral bioavailability of at least 60% means Fulfilled, below that means Not fulfilled.

CCCS(=O)(=O)c1ccc(F)c(C#Cc2cc(Cl)ccc2OCC(=O)O)c1 [Example 89] ... Fulfilled
O=C(O)COc1ccc(Cl)cc1C#Cc1ccc2c(c1)S(=O)(=O)c1ccccc1-2 [Example 154] ... Not fulfilled
CCCS(=O)(=O)c1cccc(C#Cc2cc(Cl)ccc2OCC(=O)O)c1 [Example 17] ... Not fulfilled
CC(C)S(=O)(=O)c1ccc(Cl)c(C#Cc2cc(Cl)ccc2OCC(=O)O)c1 [Example 103] ... Fulfilled
CN(C)S(=O)(=O)c1cncc(C#Cc2cc(Cl)ccc2OCC(=O)O)c1 [Example 35] ... Fulfilled

Moving on to another molecule below.
Exercise: # bool: Oral bioavailability of CN(C)S(=O)(=O)c1ccc(F)c(C#Cc2cc(Cl)ccc2OCC(=O)O)c1 [Example 107] >= 60%
Key: Not fulfilled

---

Biological target: CRTH2 (Homo sapiens)
Test: Cellular Dielectric Spectroscopy (CHO-CRTH2 cells)
Assay type: cell-based
Parameters: expressed in transfected cells; host or cells: CHO-CRTH2 cells
Settings: antagonist mode, fixed concentration of PGD2 (EC80)
PROPERTY: IC50 (nM)
Give the number; nM is assumed, so skip it.

Cc1ccc(S(=O)(=O)CCCO)cc1C#Cc1cc(Cl)ccc1OCC(=O)O ... 37
CN(C)S(=O)(=O)c1cncc(C#Cc2cc(C#N)ccc2OCC(=O)O)c1 ... 34
Cc1ccc(S(=O)(=O)CC(C)C)cc1C#Cc1cc(Cl)ccc1OCC(=O)O ... 50
CN(C)S(=O)(=O)c1ccc(F)c(C#Cc2cc(Cl)ccc2OCC(=O)O)c1 ... 23

As a next step, examine the compound that follows.
Exercise: Provide IC50 value for the following compound: CCCS(=O)(=O)c1ccc(C)c(C#Cc2cc(Cl)ccc2OCC(=O)O)c1
Key: 32

---

Biological target: CRTH2 (Homo sapiens)
Test: Cellular Dielectric Spectroscopy (CHO-CRTH2 cells)
Type: cell-based
Parameters: expressed in transfected cells; host or cells: CHO-CRTH2 cells
Conditions: partial agonists, agonist activity without PGD2
Classify: Satisfied when Emax is strictly less than 50%; Not satisfied when Emax is not.

Observe how each entry below is paired with its result.
CCCS(=O)(=O)c1cccc(C#Cc2cc(C(F)(F)F)ccc2OCC(=O)O)c1 ... Not satisfied
CCCS(=O)(=O)c1cccc(C#Cc2cc(-c3ccccc3)ccc2OCC(=O)O)c1 ... Not satisfied
CS(=O)(=O)c1ccc(F)c(C#Cc2cc(C#N)ccc2OCC(=O)O)c1 ... Satisfied
CS(=O)(=O)c1ccc(F)c(C#Cc2cc(Cl)ccc2OCC(=O)O)c1 ... Satisfied
Cc1ccncc1C#Cc1cc(C#N)ccc1OCC(=O)O ... Not satisfied

Exercise: is_below(Emax, 50%) for Cc1ccncc1C#Cc1cc(Cl)ccc1OCC(=O)O ?
Key: Satisfied

---

Molecular target: CRTH2 (Homo sapiens)
Sequence (Q9Y5Y4 1-395): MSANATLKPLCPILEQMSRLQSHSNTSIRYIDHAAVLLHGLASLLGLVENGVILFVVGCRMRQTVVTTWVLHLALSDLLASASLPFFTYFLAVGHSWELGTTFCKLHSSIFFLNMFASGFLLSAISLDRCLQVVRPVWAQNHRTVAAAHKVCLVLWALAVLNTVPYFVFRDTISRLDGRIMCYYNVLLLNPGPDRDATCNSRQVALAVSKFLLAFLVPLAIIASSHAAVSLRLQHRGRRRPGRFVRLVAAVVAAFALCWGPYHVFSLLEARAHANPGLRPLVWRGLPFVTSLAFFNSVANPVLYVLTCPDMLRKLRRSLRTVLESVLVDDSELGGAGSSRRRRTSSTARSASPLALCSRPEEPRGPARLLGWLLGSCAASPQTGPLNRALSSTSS
Experiment: [35S]GTPγS binding assay (CHO-CRTH2 cell membranes)
Type: biochemical
Set-up: expressed in transfected cells; host or cells: CHO-CRTH2 cells
Conditions: antagonist mode, fixed concentration of PGD2 (EC80)
IC50 values, listed per item
Give the number; nM is assumed, so skip it.

Some solved cases for reference:
CS(=O)(=O)c1ccc(Cl)c(C#Cc2cc(Cl)ccc2OCC(=O)O)c1 [Example 59] ... 6
CCCS(=O)(=O)c1ccc(C)c(C#Cc2cc(Cl)ccc2OCC(=O)O)c1 [Example 38] ... 6
Cc1ccc(S(=O)(=O)c2ccccc2)cc1C#Cc1cc(Cl)ccc1OCC(=O)O [Example 95] ... 10

Exercise: State IC50 (CRTH2 (Homo sapiens)) of CC(C)S(=O)(=O)c1ccc(F)c(C#Cc2cc(Cl)ccc2OCC(=O)O)c1 [Example 102] .
Key: 4

Exercise: State IC50 (CRTH2 (Homo sapiens)) of CN(C)S(=O)(=O)c1cncc(C#Cc2cc(Cl)ccc2OCC(=O)O)c1 [Example 35] .
Key: 126

Exercise: State IC50 (CRTH2 (Homo sapiens)) of CCCc1ccncc1C#Cc1cc(Cl)ccc1OCC(=O)O [Example 42] .
Key: 10

Exercise: State IC50 (CRTH2 (Homo sapiens)) of CCCS(=O)(=O)c1ccc(C)c(C#Cc2cc(C#N)ccc2OCC(=O)O)c1 [Example 40] .
Key: 39

Exercise: State IC50 (CRTH2 (Homo sapiens)) of CCCS(=O)(=O)c1ccc(F)c(C#Cc2cc(Cl)ccc2OC(C)C(=O)O)c1 (stereo not drawn) [Example 168] .
Key: 9

Exercise: State IC50 (CRTH2 (Homo sapiens)) of CCCS(=O)(=O)c1cccc(C#Cc2cc(C#N)ccc2OCC(=O)O)c1 [Example 32] .
Key: 185

---

Target: CRTH2 (Homo sapiens)
Sequence (Q9Y5Y4 1-395): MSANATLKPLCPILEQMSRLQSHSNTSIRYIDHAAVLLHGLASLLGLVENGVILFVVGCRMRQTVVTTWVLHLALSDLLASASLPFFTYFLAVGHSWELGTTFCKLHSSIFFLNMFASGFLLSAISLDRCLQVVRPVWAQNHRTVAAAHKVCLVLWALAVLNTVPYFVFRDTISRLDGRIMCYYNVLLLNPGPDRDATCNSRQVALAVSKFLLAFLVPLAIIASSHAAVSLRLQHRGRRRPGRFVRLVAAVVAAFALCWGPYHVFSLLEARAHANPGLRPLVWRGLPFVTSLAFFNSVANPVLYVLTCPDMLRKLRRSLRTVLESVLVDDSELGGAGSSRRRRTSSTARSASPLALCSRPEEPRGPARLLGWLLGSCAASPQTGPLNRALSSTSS
Test: Radioligand binding Scintillation Proximity Assay ([3H]PGD2, hCRTH2-CHO cell membranes)
Set-up: host or cells: CHO cells
Settings: 1.5 nM [3H]PGD2, hCRTH2-CHO cell membranes, SPA
pIC50: −log10 of the molar value.
Quick rule: pIC50 of at least 8 means met, below that means not met.

Observe how each entry below is paired with its result.
O=C(O)COc1ccc(Cl)cc1C#Cc1cncc(S(=O)(=O)N2CC(F)(F)C2)c1 ... not met
O=C(O)COc1ccc(Cl)cc1C#Cc1ccc2c(c1)S(=O)(=O)CC2 ... not met
CN(C)C(=O)c1cccc(C#Cc2cc(Cl)ccc2OCC(=O)O)c1 ... not met
CS(=O)(=O)Cc1cccc(C#Cc2cc(Cl)ccc2OCC(=O)O)c1 ... not met
O=C(O)COc1ccc(Cl)cc1C#Cc1cccc(S(=O)(=O)CCCO)c1 ... not met
CCCS(=O)(=O)c1cc(C#Cc2cc(Cl)ccc2OCC(=O)O)c(C)cc1NC(C)=O ... met

Moving on to another compound below.
Exercise: # bool: pIC50 of Cc1ccc(S(=O)(=O)N2CCOCC2)cc1C#Cc1cc(Cl)ccc1OCC(=O)O >= 8
Key: met
